Provide the recorded pIC50 for the entries that follow.
Tested on: IL-17A-induced G-CSF production in human normal keratinocyte (NHK)
Assay: NHK assay: IL-17A-induced G-CSF production in normal human keratinocytes
Assay type: cell-based
Conditions: Homo sapiens, Keratinocyte, 24 h, IL-17A 5 ng/mL, average if tested more than once
pIC50: −log10 of the molar value.

Exam item: What value of pIC50 has been reported for the following molecule? C[C@@H](OC1CC1)[C@H](NC(=O)c1nonc1C1CC1)c1nc2cc([C@@H](COC3CC3)NC(=O)CC3CC(F)(F)C3)ccc2[nH]1
Marked response: > 7.30

Exam item: Given Cc1nonc1C(=O)N[C@H](c1nc2ccc([C@H](NC(=O)CC3CC(F)(F)C3)C3CC3)cc2[nH]1)[C@@H]1C[C@H]2C[C@H]2C1 , state its recorded pIC50.
Marked response: < 7.00

Exam item: // lookup pIC50 for C[C@@H](NC(=O)CCC(F)(F)F)c1ccc2[nH]c([C@@H](NC(=O)c3ncn(CCC(F)(F)F)n3)C3CCC(F)(F)CC3)nc2c1
Marked response: < 7.00

Exam item: Item under review: C[C@@H](NC(=O)CCC(F)(F)F)c1ccc2[nH]c([C@@H](NC(=O)c3cnn(CCCC(F)(F)F)n3)C3CCC(F)(F)CC3)nc2c1 . Reported pIC50?
Marked response: 7.00 to 7.30

Exam item: Data request, read-out pIC50, for Cc1nonc1C(=O)N[C@H](c1nc2cc([C@H](NC(=O)CC(C)C(F)(F)F)C3CC3)ccc2[nH]1)[C@@H]1CCCC(F)(F)C1 (single isomer, unassigned)
Marked response: 7.00 to 7.30

Exam item: // query pIC50 value for entry C[C@@H](NC(=O)CCC(F)(F)F)c1ccc2nc([C@@H](NC(=O)c3cnnn3CC3CC(F)(F)C3)C3CCC(F)(F)CC3)[nH]c2c1
Marked response: 7.00 to 7.30

* * *

Target: IL-17A : IL-17RA binding (Homo sapiens, UniProt Q16552, K93Q)
Construct: Name: IL-17A-Flag
Sequence (Q16552 with tags, fused parts or gaps K93Q): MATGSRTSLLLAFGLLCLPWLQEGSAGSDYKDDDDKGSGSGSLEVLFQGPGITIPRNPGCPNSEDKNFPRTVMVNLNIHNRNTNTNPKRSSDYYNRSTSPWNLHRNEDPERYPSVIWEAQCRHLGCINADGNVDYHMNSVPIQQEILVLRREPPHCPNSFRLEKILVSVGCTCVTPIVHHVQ
Test: IL-17A(FLAG-tagged):IL-17RA(His-tagged) binding disruption Eu-HTRF assay, Protocol 1
Settings: FLAG-IL-17A 2.5 nM at 2x final concentration; average if tested more than once
pIC50: −log10 of the molar value.
Provide the recorded pIC50 for the entries that follow.

Exam item: What pIC50 value was documented for this compound, C[C@@H](NC(=O)CCC(F)(F)F)c1ccc2[nH]c([C@@H](NC(=O)c3cnnn3CC3CC3(F)F)C3CCC(F)(F)CC3)nc2c1 (stereo partly drawn) ?
Marked response: < 7.00

Exam item: Data request, read-out pIC50, for Cc1nonc1C(=O)N[C@H](c1nc2ccc([C@H](NC(=O)CC3CC(F)(F)C3)C3CC3)cc2[nH]1)C1CCOC(C)(C)C1 (single isomer, unassigned) [Example 174]
Marked response: < 7.00

Exam item: pIC50 for Cc1nonc1C(=O)N[C@@H](CC(C)(C)C(F)(F)F)c1nc2ccc([C@H](NC(=O)CC3CC3(F)F)C3CC3)cc2[nH]1 (single isomer, unassigned) [Example 183] ?
Marked response: > 7.30

Exam item: Could you tell me which pIC50 is on file for C[C@@H](NC(=O)CCC(F)(F)F)c1ccc2[nH]c([C@@H](NC(=O)C3(C)CC3)C3CCC(F)(F)CC3)nc2c1 ?
Marked response: < 7.00

Exam item: Could you share which pIC50 value was measured for Cc1nonc1C(=O)N[C@H](c1nc2ccc([C@H](NC(=O)CC3CC(F)(F)C3)C3CC3)cc2[nH]1)C1CCC2(CC1)CC2 (stereo partly drawn) ?
Marked response: > 7.30

Exam item: Query: pIC50; subject: C[C@@H](NC(=O)CCC(F)(F)F)c1ccc2[nH]c([C@@H](NC(=O)CC3CC3(F)F)C3CCC(F)(F)CC3)nc2c1 (single isomer, unassigned) [Example 107]
Marked response: < 7.00
